Molecular target: Acetylcholine-binding protein (Lymnaea stagnalis)
Assay: Binding affinity to Lymnaea stagnalis nicotinic acetylcholine receptor by fluorescence based assay
Format: single protein
Active and inactive are the calls of the source. The calls are words filed in the database; no cut-off is given here.
One label from this list, please: yes (1) (active), no (0) (inactive)

Hi team, can someone confirm the assay call for NCC1CCC(c2cccnc2)O1 (mixture of isomers) ?
yes (1)

Hi team, can someone confirm the assay call for NC[C@@H]1CC[C@@H](c2cccnc2)O1 (relative stereo) ?
yes (1)

Hi team, can someone confirm the assay call for c1cncc(-c2cccnc2)c1 ?
yes (1)

Hi team, can someone confirm the assay call for BrCC1CCC(c2cccnc2)O1 (configuration not stated) ?
yes (1)

Hi team, can someone confirm the assay call for Cc1cn(-c2cccnc2)cn1 ?
yes (1)

Hi team, can someone confirm the assay call for Cl.Cl.c1cncc(-c2c[nH]cn2)c1 ?
no (0)

Hi team, can someone confirm the assay call for OCC1CCC(c2cccnc2)O1 (configuration not stated) ?
no (0)
